# experiment: previous study of CA28 administered intravenously (historical data)
# Type: in vivo, Cynomolgus monkeys
# condition_label: cynomolgus monkey, serum; IV 200 mg/kg; time 0.333 days; historical data, HPLC; read-out: Serum Concentration
assay_readout: level at 7.992 h (ng/mL)
// note: answer is a bare numeric in ng/mL

I would be grateful if you could share the reported level at 7.992 h for CC[C@H](C)[C@H](NC(C)=O)C(=O)N[C@H]1CSSC[C@@H](C(=O)N[C@H](C(N)=O)[C@@H](C)O)NC(=O)[C@H](CCCNC(=N)N)NC(=O)[C@H](Cc2cnc[nH]2)NC(=O)[C@H](C)NC(=O)CNC(=O)[C@H](Cc2c[nH]c3ccccc23)NC(=O)[C@H](CC(=O)O)NC(=O)[C@H](CCC(N)=O)NC(=O)[C@H](Cc2cn(C)c3ccccc23)NC(=O)[C@H](C(C)C)NC1=O [CA28] .
5000

###

# experiment: previous study of CA28 administered intravenously (historical data)
# Format: in vivo, Cynomolgus monkeys
# condition_label: cynomolgus monkey, serum; IV 200 mg/kg; time 1 day; historical data, HPLC; read-out: Serum Concentration
assay_readout: level at 24 h (ng/mL)
Hi! Could you send only the number? It should be in ng/mL, unit omitted.

I have this compound here, CC[C@H](C)[C@H](NC(C)=O)C(=O)N[C@H]1CSSC[C@@H](C(=O)N[C@H](C(N)=O)[C@@H](C)O)NC(=O)[C@H](CCCNC(=N)N)NC(=O)[C@H](Cc2cnc[nH]2)NC(=O)[C@H](C)NC(=O)CNC(=O)[C@H](Cc2c[nH]c3ccccc23)NC(=O)[C@H](CC(=O)O)NC(=O)[C@H](CCC(N)=O)NC(=O)[C@H](Cc2cn(C)c3ccccc23)NC(=O)[C@H](C(C)C)NC1=O , and I need its recorded level at 24 h.
1500

###

# experiment: previous study of CA28 administered intravenously (historical data)
# Format: in vivo, Cynomolgus monkeys
# condition_label: cynomolgus monkey, serum, iv, 200 mg/kg; read-out: Serum Concentration
assay_readout: level at 4.008 h (ng/mL)
API: value field is a number in ng/mL; no unit string.

What does the data say about its level at 4.008 h? Entry: CC[C@H](C)[C@H](NC(C)=O)C(=O)N[C@H]1CSSC[C@@H](C(=O)N[C@H](C(N)=O)[C@@H](C)O)NC(=O)[C@H](CCCNC(=N)N)NC(=O)[C@H](Cc2cnc[nH]2)NC(=O)[C@H](C)NC(=O)CNC(=O)[C@H](Cc2c[nH]c3ccccc23)NC(=O)[C@H](CC(=O)O)NC(=O)[C@H](CCC(N)=O)NC(=O)[C@H](Cc2cn(C)c3ccccc23)NC(=O)[C@H](C(C)C)NC1=O
9000

###

# experiment: previous study of CA28 administered intravenously (historical data)
# Format: in vivo, Cynomolgus monkeys
# condition_label: cynomolgus monkey, serum; IV 200 mg/kg; time 0.042 days; historical data, HPLC; read-out: Serum Concentration
assay_readout: level at 1.008 h
A complete answer gives the number and then names the unit.

I have this molecule here, CC[C@H](C)[C@H](NC(C)=O)C(=O)N[C@H]1CSSC[C@@H](C(=O)N[C@H](C(N)=O)[C@@H](C)O)NC(=O)[C@H](CCCNC(=N)N)NC(=O)[C@H](Cc2cnc[nH]2)NC(=O)[C@H](C)NC(=O)CNC(=O)[C@H](Cc2c[nH]c3ccccc23)NC(=O)[C@H](CC(=O)O)NC(=O)[C@H](CCC(N)=O)NC(=O)[C@H](Cc2cn(C)c3ccccc23)NC(=O)[C@H](C(C)C)NC1=O [CA28] , and I need its recorded level at 1.008 h.
17000 ng/mL
